# System: E. coli
# MEASUREMENT_PROTOCOL: Checkerboard assay (MIC in combination, FIC index)
# Assay type: cell-based, Escherichia coli
# CONDITION_LABEL: antibiotic combined with LNT113; E. coli FORC81
RECORDED_METRIC: Fractional inhibitory concentration index (FICI) of LNT113 using various antibiotics
Give bare numbers.

Example entries begin here.
CPD_SMILES | TARGET_ENTITY | QUANTITATIVE_READOUT
C[C@@H](O)[C@H]1C(=O)N2C(C(=O)O)=C(S[C@@H]3CN[C@H](C(=O)N(C)C)C3)[C@H](C)[C@H]12 | E. coli | 2
O=C(N[C@H](CO)[C@H](O)c1ccc([N+](=O)[O-])cc1)C(Cl)Cl | E. coli | 2

Which Fractional inhibitory concentration index (FICI) of LNT113 using various antibiotics value belongs to NC[C@H]1O[C@H](O[C@H]2[C@H](O)[C@@H](O[C@H]3O[C@H](CO)[C@@H](O)[C@H](N)[C@H]3O)[C@H](N)C[C@@H]2N)[C@H](O)[C@@H](O)[C@@H]1O ?
1

---

Could you please report measured Fractional inhibitory concentration index (FICI) of LNT113 using various antibiotics for the items listed next?
# System: E. coli
# MEASUREMENT_PROTOCOL: Checkerboard assay (MIC in combination, FIC index)
# Format: cell-based, Escherichia coli
# CONDITION_LABEL: antibiotic combined with LNT113; E. coli FORC81
Give bare numbers.

Example entries begin here.
CPD_SMILES | QUANTITATIVE_READOUT
CN(C)c1cc(NC(=O)CNC(C)(C)C)c(O)c2c1C[C@H]1C[C@H]3[C@H](N(C)C)C(O)=C(C(N)=O)C(=O)[C@@]3(O)C(O)=C1C2=O | 2
CC(C)(O/N=C(\C(=O)N[C@@H]1C(=O)N2C(C(=O)[O-])=C(C[n+]3ccccc3)CS[C@H]12)c1csc(N)n1)C(=O)O | 1

Which Fractional inhibitory concentration index (FICI) of LNT113 using various antibiotics value belongs to CC[C@H]1OC(=O)[C@H](C)[C@@H](O[C@H]2C[C@@](C)(OC)[C@@H](O)[C@H](C)O2)[C@H](C)[C@@H](O[C@@H]2O[C@H](C)C[C@H](N(C)C)[C@H]2O)[C@](C)(O)C[C@@H](C)CN(C)[C@H](C)[C@@H](O)[C@]1(C)O ?
2

---

Could you please report measured Fractional inhibitory concentration index (FICI) of LNT113 using various antibiotics for the items listed next?
# Test system: E. coli
# MEASUREMENT_PROTOCOL: Checkerboard assay (MIC in combination, FIC index)
# Type: cell-based, Escherichia coli
# CONDITION_LABEL: antibiotic combined with LNT113; E. coli ATCC 8739

CPD_SMILES | RESULT
C[C@@H](O)[C@H]1C(=O)N2C(C(=O)O)=C(S[C@@H]3CN[C@H](C(=O)N(C)C)C3)[C@H](C)[C@H]12 | 0.63
CC[C@H]1OC(=O)[C@H](C)[C@@H](O[C@H]2C[C@@](C)(OC)[C@@H](O)[C@H](C)O2)[C@H](C)[C@@H](O[C@@H]2O[C@H](C)C[C@H](N(C)C)[C@H]2O)[C@](C)(O)C[C@@H](C)CN(C)[C@H](C)[C@@H](O)[C@]1(C)O | 1
CN(C)c1cc(NC(=O)CNC(C)(C)C)c(O)c2c1C[C@H]1C[C@H]3[C@H](N(C)C)C(O)=C(C(N)=O)C(=O)[C@@]3(O)C(O)=C1C2=O | 2
NC[C@H]1O[C@H](O[C@H]2[C@H](O)[C@@H](O[C@H]3O[C@H](CO)[C@@H](O)[C@H](N)[C@H]3O)[C@H](N)C[C@@H]2N)[C@H](O)[C@@H](O)[C@@H]1O | 2
O=C(N[C@H](CO)[C@H](O)c1ccc([N+](=O)[O-])cc1)C(Cl)Cl | 1

Consider the additional compound presented here.
Which Fractional inhibitory concentration index (FICI) of LNT113 using various antibiotics value belongs to CC(C)(O/N=C(\C(=O)N[C@@H]1C(=O)N2C(C(=O)[O-])=C(C[n+]3ccccc3)CS[C@H]12)c1csc(N)n1)C(=O)O ?
2
